Reference for the values: patent US20170290820A1

I'd be grateful if you could share measured pIC50 for these entries.
# Test system: primary human erythroid cells
# Assay info: AlamarBlue cell viability / proliferation assay
# Condition: Table 1a; concentration reducing proliferation rate of primary human erythroid cells by 50%, 3 days
Where a name gives a salt, the structure may show the parent alone.
Expect pIC50 as a plain number equal to -log10 of the molar concentration.

Give the measured pIC50 of "O=C1c2cccc3c([N+](=O)[O-])ccc(c23)C(=O)N1c1ccc(Cl)c(Cl)c1" . 5.28

Give the measured pIC50 of Nc1ccc2c3c(cccc13)C(=O)N(c1ccccc1)C2=O [Compound E1, N-Phenyl-4-amino-1,8-naphthalimide] . 5.66

Give the measured pIC50 of "COc1cccc(N2C(=O)c3cccc4c([N+](=O)[O-])ccc(c34)C2=O)c1" . 4.68

Give the measured pIC50 of O=C1c2cccc3c([N+](=O)[O-])ccc(c23)C(=O)N1c1ccccc1 [Compound A2, N-Phenyl-4-nitro-1,8-naphthalimide] . 6.52

Give the measured pIC50 of CN(C)CCN1C(=O)c2cccc3cccc(c23)C1=O [Compound B1, hydrochloride] . 4.97

Give the measured pIC50 of "CN(C)CCCN1C(=O)c2cccc3c([N+](=O)[O-])ccc(c23)C1=O" . 5.64

Give the measured pIC50 of CN(C)CCN1C(=O)c2cccc3c(N)ccc(c23)C1=O [Compound E2, hydrochloride] . 5.64

Give the measured pIC50 of "CN(C)CCN1C(=O)c2cccc3c([N+](=O)[O-])ccc(c23)C1=O" . 5.59

Give the measured pIC50 of "O=C(O)CCCc1ccc(N2C(=O)c3cccc4c([N+](=O)[O-])ccc(c34)C2=O)cc1" . 5.17

Give the measured pIC50 of CCOC(=O)CCCN1C(=O)c2cccc3c([N+](=O)[O-])ccc(c23)C1=O [Compound D1] . 5.20

Give the measured pIC50 of CN(C)CCCN1C(=O)c2cccc3c(N)ccc(c23)C1=O [Compound E3, hydrochloride] . 4.95

Give the measured pIC50 of CN(C)CCN1C(=O)c2cccc3c(Cl)ccc(c23)C1=O [Compound B4, hydrochloride] . 5.30

----------
# Assay info: solubility in DMSO and H2O
# Format: physicochemical
# Condition: DMSO, organic solvent or mixture; read-out: solubility DMSO
I'd be grateful if you could share measured solubility for these entries.
Output spec: scalar in mM, unitless text.

Give the measured solubility of Nc1ccc2c3c(cccc13)C(=O)N(c1ccccc1)C2=O [Compound E1, N-Phenyl-4-amino-1,8-naphthalimide] . 10

Give the measured solubility of O=C1c2cccc3cccc(c23)C(=O)N1c1ccccc1 [Compound A1, N-Phenyl-1,8-naphthalimide] . 10

----------
Counter-ions that a name gives are not always drawn.
I'd be grateful if you could share measured melting point for these entries.

Give the measured melting point of O=C1c2cccc3cccc(c23)C(=O)N1c1ccccc1 [Compound A1, N-Phenyl-1,8-naphthalimide] . 218 to 220 °C

Give the measured melting point of O=C1c2cccc3c(Cl)ccc(c23)C(=O)N1c1ccc(Br)cc1 [Compound A13] . > 280 °C

Give the measured melting point of O=C1c2cccc3c(Cl)ccc(c23)C(=O)N1c1cccc(Br)c1 [Compound A9] . > 280 °C

Give the measured melting point of CC(=O)Nc1ccc2c3c(cccc13)C(=O)N(CCN(C)C)C2=O [BO-2559] . 278 to 279 °C

Give the measured melting point of CN(C)CCN1Cc2cccc3c(N(C)C)ccc(c23)C1 [BO-2563] . 251 to 252 °C

Give the measured melting point of CN(C)CCN1C(=O)c2cccc3cccc(c23)C1O (stereo not shown) [BO-2476] . 129 to 130 °C

Give the measured melting point of O=C1c2cccc3c(Cl)ccc(c23)C(=O)N1c1ccc(F)c(Br)c1 [Compound A11] . > 280 °C

Give the measured melting point of O=C1c2cccc3c([N+](=O)[O-])ccc(c23)C(=O)N1c1ccc(Cl)c(Cl)c1 [Compound A3] . > 280 °C

Give the measured melting point of CN(C)CCN1Cc2cccc3cccc(c23)C1=O [BO-2477] . 253 to 254 °C

Give the measured melting point of O=C1c2cccc3c(Cl)ccc(c23)C(=O)N1c1cccc(Cl)c1 [Compound A10] . 273 to 275 °C

Give the measured melting point of CN(C)CCCN1C(=O)c2cccc3c(N)ccc(c23)C1=O (as salt: hydrochloride) [Compound E3] . > 280 °C

Give the measured melting point of CN(C)CCN1C(=O)c2cccc3c([N+](=O)[O-])ccc(c23)C1=O [Compound B2] . 131 to 133 °C

Give the measured melting point of CCNc1ccc2c3c(cccc13)CN(CCN(C)C)C2 [BO-2565] . 239 to 240 °C

Give the measured melting point of O=C1c2cccc3c(Cl)ccc(c23)C(=O)N1c1ccc(F)cc1 [Compound A12] . 274 to 276 °C

Give the measured melting point of CN(C)CCN1C(=O)c2cccc3c(Cl)ccc(c23)C1=O (as salt: hydrochloride) [Compound B4] . > 280 °C

Give the measured melting point of CCOC(=O)CCCN1C(=O)c2cccc3c([N+](=O)[O-])ccc(c23)C1=O [Compound D1] . 115 to 116 °C

Give the measured melting point of O=C1c2cccc3c(Cl)ccc(c23)C(=O)N1c1cccc(C(F)(F)F)c1 [Compound A8] . 278 to 279 °C

Give the measured melting point of O=C1c2cccc3c(Cl)ccc(c23)C(=O)N1c1ccccc1 [Compound A6, N-Phenyl-4-chloro-1,8-naphthalimide] . 263 to 265.5 °C

Give the measured melting point of CCN1C(=O)c2cccc3c([N+](=O)[O-])ccc(c23)C1=O [Compound C3, N-Ethyl-4-nitro-1,8-naphthalimide] . 191 to 192.5 °C

Give the measured melting point of CCNc1ccc2c3c(cccc13)C(=O)N(CCN(C)C)C2=O [BO-2564] . 253 to 254 °C

Give the measured melting point of O=C1c2cccc3c(Cl)ccc(c23)C(=O)N1c1ccc(Cl)c(Cl)c1 [Compound A14] . > 280 °C

Give the measured melting point of CCN1C(=O)c2cccc3c(Cl)ccc(c23)C1=O [Compound C5, N-Ethyl-4-chloro-1,8-naphthalimide] . 167 to 170 °C

Give the measured melting point of COc1cccc(N2C(=O)c3cccc4c(Cl)ccc(c34)C2=O)c1 [Compound A7] . > 280 °C

Give the measured melting point of O=C(O)CCCc1ccc(N2C(=O)c3cccc4c([N+](=O)[O-])ccc(c34)C2=O)cc1 [Compound A5] . 254.5 to 256 °C

Give the measured melting point of COc1cccc(N2C(=O)c3cccc4c([N+](=O)[O-])ccc(c34)C2=O)c1 [Compound A4] . > 280 °C

Give the measured melting point of O=C1c2cccc3c([N+](=O)[O-])ccc(c23)C(=O)N1c1ccccc1 [Compound A2, N-Phenyl-4-nitro-1,8-naphthalimide] . > 280 °C

Give the measured melting point of CN(C)CCN1Cc2cccc3c(N)ccc(c23)C1 [BO-2560] . 253 to 254 °C

Give the measured melting point of CN1C(=O)c2cccc3c([N+](=O)[O-])ccc(c23)C1=O [Compound C2, N-Methyl-4-nitro-1,8-naphthalimide] . 209 to 212.5 °C
